This collection of values is drawn from ChEMBL document CHEMBL5241075.

test system: Plasmodium falciparum; experiment: Antiplasmodial activity against Plasmodium falciparum 3D7; assay type: functional, organism-based
Property Measured: IC50 (nM)
The response must be a number in nM with no trailing unit.

Sample answers from the record:
C1CCCC2(CC1)OOC1(CCN(c3nc(N4CCOCC4)nc(N4CCOCC4)n3)CC1)OO2 : 5.71
CC(C)CN(NC(=O)C1CCC2(CC1)OOC1(OO2)C2CC3CC(C2)CC1C3)c1nc(C#N)ncc1Cl (stereo unspecified) : 9.8
C1CCC2(CC1)OOC1(CCN(c3nc(N4CCOCC4)nc(N4CCOCC4)n3)CC1)OO2 : 5.68

Query: Item C1CCC2(C1)OOC1(CCN(c3nc(N4CCOCC4)nc(N4CCOCC4)n3)CC1)OO2 has what recorded IC50?
Result: 5.52

Query: And for C1CN(c2nc(N3CCOCC3)nc(N3CCC4(CC3)OOC3(OO4)C4CC5CC(C4)CC3C5)n2)CCO1 ?
Result: 4.12

Query: Could you do the same for C[C@@H]1CC[C@H]2[C@@H](C)C(=O)O[C@@H]3O[C@@]4(C)CC[C@@H]1[C@]32OO4 , please?
Result: 5.32

* * *

Reported IC50 values follow for various compounds
test system: Hemozoin; experiment: Inhibition of Beta-hematin in Plasmodium falciparum
Express the result in equiv but write the number alone.

C[C@@H]1CC[C@H]2[C@@H](C)C(=O)O[C@@H]3O[C@@]4(C)CC[C@@H]1[C@]32OO4 : 0.66
C[C@@H]1CC[C@H]2[C@@H](C)C(OCc3ccc(C(=O)N(CCNc4ccnc5cc(Cl)ccc45)CC(=O)NC(C)(C)C)cc3)O[C@@H]3O[C@]4(C)CC[C@@H]1[C@]32OO4.O=C(O)CC(O)(CC(=O)O)C(=O)O (stereo partly specified) : 0.4
C[C@@H]1CC[C@H]2[C@@H](C)C(OCc3ccc(C(=O)N(CCNc4ccnc5cc(Cl)ccc45)CC(=O)NC(C)(C)C)cc3)O[C@@H]3O[C@]4(C)CC[C@@H]1[C@]32OO4 (stereo partly specified) : 0.44
C[C@@H]1CC[C@H]2[C@@H](C)C(OCc3ccc(C(=O)N(CCNc4ccnc5cc(Cl)ccc45)CC(=O)NC4CCCCC4)cc3)O[C@@H]3O[C@]4(C)CC[C@@H]1[C@]32OO4 (stereo partly specified) : 0.45
C[C@@H]1CC[C@H]2[C@@H](C)C(OCc3ccc(C(=O)N(CCCCNc4ccnc5cc(Cl)ccc45)CC(=O)NC4CCCCC4)cc3)O[C@@H]3O[C@]4(C)CC[C@@H]1[C@]32OO4 (stereo partly specified) : 0.31

Query: Suppose we examine the compound CCN(CC)CCCC(C)Nc1ccnc2cc(Cl)ccc12 (stereo unspecified) ; what IC50 value has been reported?
Result: 1.91

* * *

test: Lipophilicity, logP of compound; type: physicochemical; details: octanol/water
Property Measured: logP
Answer with a number only.

Query: // returns reported logP for input C[C@@H]1CC[C@H]2[C@@H](C)C(N3CCS(=O)(=O)CC3)O[C@@H]3O[C@]4(C)CC[C@@H]1[C@]32OO4 (stereo partly specified)
Result: 2.49

* * *

tested on: HeLa; experiment: Antiproliferative activity against human HeLa cells assessed as cell growth inhibition; type: functional, cell-based; settings: Homo sapiens, HeLa
Property Measured: IC50 (nM)
Value expressed in nM; do not type the unit.

// worked examples, IC50 included
C[C@@H]1CC[C@H]2[C@@H](C)C(OCc3ccc(C(=O)N(CCNc4ccnc5cc(Cl)ccc45)CC(=O)NC4CCCCC4)cc3)O[C@@H]3O[C@]4(C)CC[C@@H]1[C@]32OO4 (some centres undefined) : 286
C[C@@H]1CC[C@H]2[C@@H](C)C(OCc3ccc(C(=O)N(CCNc4ccnc5cc(Cl)ccc45)CC(=O)NC(C)(C)C)cc3)O[C@@H]3O[C@]4(C)CC[C@@H]1[C@]32OO4 (some centres undefined) : 496

Query: Which IC50 is listed for C[C@@H]1CC[C@H]2[C@@H](C)C(OCc3ccc(C(=O)N(CCCCNc4ccnc5cc(Cl)ccc45)CC(=O)NC4CCCCC4)cc3)O[C@@H]3O[C@]4(C)CC[C@@H]1[C@]32OO4 (some centres undefined) ?
Result: 169

Query: Now consider CCN(CC)CCCC(C)Nc1ccnc2cc(Cl)ccc12 (centres undefined) [CHLOROQUINE] and answer again.
Result: 8540

* * *

assay: Inhibition of Plasmodium falciparum falcipain-2
Property Measured: IC50 (nM)
Numbers only; they are read as nM.

Query: Dear colleague, I am looking for the recorded IC50 of the following molecule: CC(C)CN(NC(=O)C1CCC2(CC1)OOC1(OO2)C2CC3CC(C2)CC1C3)c1nc(C#N)ncc1Cl (stereo unspecified)
Result: 3.4

* * *

test system: Plasmodium falciparum; test: Antiplasmodial activity against Plasmodium falciparum gametocytes assessed as inhibition of gametocyte activation by [3H]hypoxanthine incorporation assay; type: functional, organism-based
Property Measured: IC50 (µM)
Your answer should be a plain number; it is taken to be in µM.

Here are 2 molecules together with their reported answers.
C[C@H]1[C@@H](OC(=O)CCC(=O)O)O[C@@H]2C[C@@]3(C)CC[C@H]4[C@H](C)CC[C@@H]1[C@@]24OO3.FC(F)(F)c1ccc2c(CC3CCCCN3)c3cccc(C(F)(F)F)c3nc2c1 (stereo not drawn) : 20
C[C@H]1[C@H](OC(=O)CCC(=O)O)O[C@@H]2O[C@@]3(C)CC[C@H]4[C@H](C)CC[C@@H]1[C@@]24OO3 [ARTESUNATE] : 300

As a next step, examine the molecule that follows.
Query: Consider the molecule shown here: O[C@@H](c1cc(C(F)(F)F)nc2c(C(F)(F)F)cccc12)[C@H]1CCCCN1 [(S,R)-MEFLOQUINE] What is its recorded IC50?
Result: 5600

* * *

test system: Plasmodium falciparum; test: Antiplasmodial activity against Plasmodium falciparum; type: functional, organism-based
Property Measured: IC50 (nM)
Express your answer in nM, writing the number without its unit.

Query: For the compound CC(C)C1=C[C@H]2OC3(CCC(NCCNc4ccnc5cc(Cl)ccc45)CC3)OO[C@@]2(C)CC1 (stereo partly specified) , what IC50 is on record?
Result: 9

* * *

system: Plasmodium falciparum; test: Antiplasmodial activity against Plasmodium falciparum TM91C235; format: functional, organism-based
Property Measured: pIC50
Please keep in mind that pIC50 is minus log10 of the molar concentration; only the number is needed.

Past entries and their recorded results:
C[C@@H]1C[C@@H]2CC3(CC[C@@H]2C2CC[C@@]4(C)C(CC[C@@H]4[C@H](C)CCCNCCNc4ccnc5cc(Cl)ccc45)C21)OOC1(CCCCC1)OO3 (some centres undefined) : 7.52
O[C@@H](c1cc(C(F)(F)F)nc2c(C(F)(F)F)cccc12)[C@H]1CCCCN1 [(S,R)-MEFLOQUINE] : 6.89
C[C@@H]1CC[C@H]2[C@@H](C)C(=O)O[C@@H]3O[C@@]4(C)CC[C@@H]1[C@]32OO4 [ARTEMISININ] : 7.88

// next item, pIC50 requested
Query: Which pIC50 value belongs to CC(=O)O[C@H]1CC2C(C3CC[C@H]([C@H](C)CCC(=O)NCCNc4ccnc5cc(Cl)ccc45)[C@]31C)[C@H](OC(C)=O)C[C@@H]1CC3(CC[C@H]21)OOC1(CCCCC1)OO3 (some centres undefined) ?
Result: 8.07

* * *

tested on: Plasmodium falciparum; test: Antiplasmodial activity against Plasmodium falciparum F-32; assay type: functional, organism-based
Property Measured: IC50 (nM)
Respond numerically; units are nM and should not be typed.

Query: What does the data say about its IC50? Entry: CC(C)C1=C[C@H]2OC3(CCC(NCCNc4cc(Cl)cc5cccnc45)CC3)OO[C@@]2(C)CC1.O=C(O)CC(O)(CC(=O)O)C(=O)O.O=C(O)CC(O)(CC(=O)O)C(=O)O (stereo partly specified)
Result: 4

* * *

Measured selectivity ratio by item
assay: Therapeutic index, ratio of IC50 for antiproliferative activity against human HeLa cells to IC50 for antiplasmodial activity against Plasmodium falciparum K1; assay type: toxicity, cell-based; conditions: HeLa cells, read-out: Ratio IC50
Would you mind answering with just the numeric figure?

Examples with their reported selectivity ratio follow.
C[C@@H]1CC[C@H]2[C@@H](C)C(OCc3ccc(C(=O)N(CCCCNc4ccnc5cc(Cl)ccc45)CC(=O)NC4CCCCC4)cc3)O[C@@H]3O[C@]4(C)CC[C@@H]1[C@]32OO4 (stereo partly drawn) : 8
C[C@@H]1CC[C@H]2[C@@H](C)C(OCc3ccc(C(=O)N(CCNc4ccnc5cc(Cl)ccc45)CC(=O)NC4CCCCC4)cc3)O[C@@H]3O[C@]4(C)CC[C@@H]1[C@]32OO4 (stereo partly drawn) : 12

Kindly review the next compound as well.
Query: So what's the measured selectivity ratio for this one? C[C@@H]1CC[C@H]2[C@@H](C)C(OCc3ccc(C(=O)N(CCNc4ccnc5cc(Cl)ccc45)CC(=O)NC(C)(C)C)cc3)O[C@@H]3O[C@]4(C)CC[C@@H]1[C@]32OO4 (stereo partly drawn)
Result: 26
